target: His6-GSK-3β (Homo sapiens, UniProt P49841); construct: made in house; host or cells: Sf21 insect cells (baculovirus); assay: Inhibition of His6-GSK-3β kinase activity (ELISA-based format, time-resolved fluorescence readout); type: biochemical; conditions: class symbols; read-out: GSK3β IC50
Sequence (P49841 2-419): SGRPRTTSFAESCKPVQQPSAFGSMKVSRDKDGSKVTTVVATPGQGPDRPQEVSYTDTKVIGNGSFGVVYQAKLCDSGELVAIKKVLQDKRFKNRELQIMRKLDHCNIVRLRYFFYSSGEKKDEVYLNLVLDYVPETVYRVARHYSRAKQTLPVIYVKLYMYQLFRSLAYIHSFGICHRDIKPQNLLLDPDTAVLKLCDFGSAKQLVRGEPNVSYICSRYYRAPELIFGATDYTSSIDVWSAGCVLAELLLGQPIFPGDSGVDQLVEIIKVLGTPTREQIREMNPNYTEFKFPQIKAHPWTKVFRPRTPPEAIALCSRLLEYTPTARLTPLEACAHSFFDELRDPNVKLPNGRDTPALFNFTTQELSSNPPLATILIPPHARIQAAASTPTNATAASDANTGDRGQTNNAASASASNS
Reported IC50 by item:

(Q) Look up IC50: CNCCCn1cc2c(C3C(=O)Nc4ccc(Br)cc43)ncnc2n1 (stereo not shown)
(A) 300 to 3000 nM

(Q) Look up IC50: N#Cc1ccc2c(c1)C(c1nc(N3CCCCC3)nc3nn(C4CCCC4)cc13)C(=O)N2 (stereo not shown)
(A) < 300 nM

(Q) Look up IC50: C[C@H](O)CNc1nc(C2C(=O)Nc3ccc(Br)cc32)c2cn(C3CCCC3)nc2n1 (stereo partly shown)
(A) < 300 nM

(Q) Look up IC50: O=C1Nc2ccccc2C1c1nc(NCc2cccnc2)nc2nn(C3CCCC3)cc12 (stereo not shown)
(A) < 300 nM

(Q) Look up IC50: O=C1Nc2ccccc2C1c1nc(NCCCN2CCOCC2)nc2nn(C3CCCC3)cc12 (stereo not shown)
(A) 300 to 3000 nM

(Q) Look up IC50: O=C1Nc2ccc(C(F)(F)F)cc2C1c1ncnc2nn(C3CCCC3)cc12 (stereo not shown)
(A) < 300 nM

(Q) Look up IC50: N#Cc1ccc2c(c1)C(c1nc(NN)nc3nn(C4CCCC4)cc13)C(=O)N2 (stereo not shown)
(A) < 300 nM

(Q) Look up IC50: CC(C)Cn1cc2c(C3C(=O)Nc4ccc(Br)cc43)nc(NCCCN(C)C)nc2n1 (stereo not shown)
(A) < 300 nM

(Q) Look up IC50: CN(C)CCNc1nc(C2C(=O)Nc3ccc(Br)cc32)c2cn(C3CCCC3)nc2n1 (stereo not shown)
(A) < 300 nM

(Q) Look up IC50: N#Cc1ccc2c(c1)C(c1nc(OCCc3cccnc3)nc3nn(C4CCCC4)cc13)C(=O)N2 (stereo not shown)
(A) < 300 nM

(Q) Look up IC50: CCCCCn1cc2c(C3C(=O)Nc4ccc(C(F)(F)F)cc43)nc(NCCCN3CCOCC3)nc2n1 (stereo not shown)
(A) < 300 nM

(Q) Look up IC50: O=C1Nc2ccccc2C1c1nc(NCCc2ccccn2)nc2nn(C3CCCC3)cc12 (stereo not shown)
(A) 300 to 3000 nM

(Q) Look up IC50: COCCNc1nc(C2C(=O)Nc3ccc(Br)cc32)c2cn(CCOC)nc2n1 (stereo not shown)
(A) < 300 nM

(Q) Look up IC50: CNCCCNc1nc(C2C(=O)Nc3ccc(Br)cc32)c2cn(CCOC)nc2n1 (stereo not shown)
(A) < 300 nM

(Q) Look up IC50: COCCn1cc2c(C3C(=O)Nc4ccc(Br)cc43)nc(NCCN3CCOCC3)nc2n1 (stereo not shown)
(A) < 300 nM

(Q) Look up IC50: CNCCNc1nc(C2C(=O)Nc3ccc(Br)cc32)c2cn(C3CCCC3)nc2n1.Cl (stereo not shown) [Example 378, hydrochloride salt]
(A) 300 to 3000 nM

(Q) Look up IC50: CCCn1cc2c(C3C(=O)Nc4ccc(Br)cc43)nc(NCc3ccncc3)nc2n1 (stereo not shown)
(A) < 300 nM

(Q) Look up IC50: O=C1Nc2c(F)cc(F)cc2C1c1ncnc2c1cnn2C1CCCC1 (stereo not shown)
(A) > 10000 nM

(Q) Look up IC50: N#Cc1ccc2c(c1)C(c1nc(Nc3cccnc3)nc3c1CCC3)C(=O)N2 (stereo not shown)
(A) 300 to 3000 nM

(Q) Look up IC50: COCCn1cc2c(C3C(=O)Nc4ccc(Br)cc43)nc(NCCN(C)C)nc2n1 (stereo not shown)
(A) 300 to 3000 nM
